SYSTEM_UNDER_TEST: Angiopoietin-1 receptor (Homo sapiens) (UniProt Q02763)
Sequence (Q02763 whole entry): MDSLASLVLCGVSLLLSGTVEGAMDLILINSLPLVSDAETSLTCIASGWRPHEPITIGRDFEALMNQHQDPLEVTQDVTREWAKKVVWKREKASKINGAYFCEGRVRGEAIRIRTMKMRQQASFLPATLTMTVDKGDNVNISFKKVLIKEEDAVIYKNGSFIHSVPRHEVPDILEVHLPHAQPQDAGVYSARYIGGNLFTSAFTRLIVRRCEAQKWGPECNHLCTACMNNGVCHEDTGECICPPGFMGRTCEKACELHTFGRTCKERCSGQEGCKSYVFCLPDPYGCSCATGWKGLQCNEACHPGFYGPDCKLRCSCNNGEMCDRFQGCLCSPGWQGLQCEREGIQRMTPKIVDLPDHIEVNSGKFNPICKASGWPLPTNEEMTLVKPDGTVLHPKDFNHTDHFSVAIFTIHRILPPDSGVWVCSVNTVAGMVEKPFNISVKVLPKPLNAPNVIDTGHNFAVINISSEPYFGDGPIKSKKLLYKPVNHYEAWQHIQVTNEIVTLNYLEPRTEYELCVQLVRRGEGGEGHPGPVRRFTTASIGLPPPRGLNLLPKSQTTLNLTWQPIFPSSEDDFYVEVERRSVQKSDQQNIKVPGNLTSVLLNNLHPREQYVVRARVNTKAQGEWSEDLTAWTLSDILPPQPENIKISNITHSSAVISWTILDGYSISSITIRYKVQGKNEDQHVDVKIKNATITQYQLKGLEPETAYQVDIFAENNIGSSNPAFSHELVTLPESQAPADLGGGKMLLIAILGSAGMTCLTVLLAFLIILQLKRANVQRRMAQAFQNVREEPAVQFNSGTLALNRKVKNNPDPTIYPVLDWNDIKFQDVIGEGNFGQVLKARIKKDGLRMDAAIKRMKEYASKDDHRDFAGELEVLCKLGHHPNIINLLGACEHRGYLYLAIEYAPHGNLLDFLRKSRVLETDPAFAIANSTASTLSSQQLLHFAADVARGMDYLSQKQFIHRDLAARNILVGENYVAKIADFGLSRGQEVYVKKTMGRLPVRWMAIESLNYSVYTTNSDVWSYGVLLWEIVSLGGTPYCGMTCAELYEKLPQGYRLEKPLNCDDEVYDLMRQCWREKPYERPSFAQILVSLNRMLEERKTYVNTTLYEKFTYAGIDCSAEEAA
ASSAY_SUMMARY: Inhibition of TIE2 (unknown origin) at 10 uM
REPORTED_PROPERTY: inhibition (%)

Would you please look over these solved cases?
Recorded inhibition for `Cn1c(=O)c(Oc2ccc(F)cc2F)cc2cnc(Nc3ccc(N4CCC(O)CC4)cc3)nc21` on Angiopoietin-1 receptor (Homo sapiens) (UniProt Q02763) was 10

Recorded inhibition for `CN1CCN(CCCNc2ncc3cc(Oc4ccc(F)cc4F)c(=O)n(C)c3n2)CC1` on Angiopoietin-1 receptor (Homo sapiens) (UniProt Q02763) was 0

(P) CN(C)CCNc1ncc2cc(Oc3ccc(F)cc3F)c(=O)n(C)c2n1
(Q) Cn1c(=O)c(Oc2ccc(F)cc2F)cc2cnc(Nc3ccc(N4CCCCC4)cc3)nc21
I need your help: which of the pair P , Q has higher inhibition? Use the label to indicate which entry you chose.
Q
(Q: 4%, P: 0%)

----------
SYSTEM_UNDER_TEST: Tyrosine-protein kinase receptor UFO (Homo sapiens)
ASSAY_SUMMARY: Inhibition of AXL (unknown origin) at 10 uM
REPORTED_PROPERTY: inhibition (%)

Would you please look over these solved cases?
inhibition for `Cn1c(=O)c(Oc2ccc(F)cc2F)cc2cnc(Nc3ccc(N4CCCCC4)cc3)nc21` is 6

inhibition for `CN1CCN(c2ccc(Nc3ncc4cc(Oc5ccc(F)cc5F)c(=O)n(C)c4n3)cc2)CC1` is 9

inhibition for `CN1CCN(c2ccc(Nc3ncc4cc(Oc5c(Cl)cccc5Cl)c(=O)n(C)c4n3)cc2)CC1` is 0

(A) CN(C)CCNc1ncc2cc(Oc3ccc(F)cc3F)c(=O)n(C)c2n1
(B) Cn1c(=O)c(Oc2ccc(F)cc2F)cc2cnc(Nc3ccc(N4CCC(O)CC4)cc3)nc21
I need your help: which of the pair A , B has higher inhibition? Use the label to indicate which entry you chose.
B
(B: 9%, A: 0%)

(I) Cn1c(=O)c(Oc2ccc(F)cc2F)cc2cnc(NC3CCN(S(C)(=O)=O)CC3)nc21
(II) CN1CCN(CCCNc2ncc3cc(Oc4ccc(F)cc4F)c(=O)n(C)c3n2)CC1
(III) Cn1c(=O)c(Oc2ccc(F)cc2F)cc2cnc(NCCc3ccccn3)nc21
Sort the compounds on inhibition; start with the lowest figure. Hello, could you send the labels back in the order asked? Thank you.
III, II, I
(III: 0%, II: 4%, I: 8%)

----------
SYSTEM_UNDER_TEST: Vascular endothelial growth factor receptor 2 (Homo sapiens) (UniProt P35968)
Sequence (P35968 whole entry): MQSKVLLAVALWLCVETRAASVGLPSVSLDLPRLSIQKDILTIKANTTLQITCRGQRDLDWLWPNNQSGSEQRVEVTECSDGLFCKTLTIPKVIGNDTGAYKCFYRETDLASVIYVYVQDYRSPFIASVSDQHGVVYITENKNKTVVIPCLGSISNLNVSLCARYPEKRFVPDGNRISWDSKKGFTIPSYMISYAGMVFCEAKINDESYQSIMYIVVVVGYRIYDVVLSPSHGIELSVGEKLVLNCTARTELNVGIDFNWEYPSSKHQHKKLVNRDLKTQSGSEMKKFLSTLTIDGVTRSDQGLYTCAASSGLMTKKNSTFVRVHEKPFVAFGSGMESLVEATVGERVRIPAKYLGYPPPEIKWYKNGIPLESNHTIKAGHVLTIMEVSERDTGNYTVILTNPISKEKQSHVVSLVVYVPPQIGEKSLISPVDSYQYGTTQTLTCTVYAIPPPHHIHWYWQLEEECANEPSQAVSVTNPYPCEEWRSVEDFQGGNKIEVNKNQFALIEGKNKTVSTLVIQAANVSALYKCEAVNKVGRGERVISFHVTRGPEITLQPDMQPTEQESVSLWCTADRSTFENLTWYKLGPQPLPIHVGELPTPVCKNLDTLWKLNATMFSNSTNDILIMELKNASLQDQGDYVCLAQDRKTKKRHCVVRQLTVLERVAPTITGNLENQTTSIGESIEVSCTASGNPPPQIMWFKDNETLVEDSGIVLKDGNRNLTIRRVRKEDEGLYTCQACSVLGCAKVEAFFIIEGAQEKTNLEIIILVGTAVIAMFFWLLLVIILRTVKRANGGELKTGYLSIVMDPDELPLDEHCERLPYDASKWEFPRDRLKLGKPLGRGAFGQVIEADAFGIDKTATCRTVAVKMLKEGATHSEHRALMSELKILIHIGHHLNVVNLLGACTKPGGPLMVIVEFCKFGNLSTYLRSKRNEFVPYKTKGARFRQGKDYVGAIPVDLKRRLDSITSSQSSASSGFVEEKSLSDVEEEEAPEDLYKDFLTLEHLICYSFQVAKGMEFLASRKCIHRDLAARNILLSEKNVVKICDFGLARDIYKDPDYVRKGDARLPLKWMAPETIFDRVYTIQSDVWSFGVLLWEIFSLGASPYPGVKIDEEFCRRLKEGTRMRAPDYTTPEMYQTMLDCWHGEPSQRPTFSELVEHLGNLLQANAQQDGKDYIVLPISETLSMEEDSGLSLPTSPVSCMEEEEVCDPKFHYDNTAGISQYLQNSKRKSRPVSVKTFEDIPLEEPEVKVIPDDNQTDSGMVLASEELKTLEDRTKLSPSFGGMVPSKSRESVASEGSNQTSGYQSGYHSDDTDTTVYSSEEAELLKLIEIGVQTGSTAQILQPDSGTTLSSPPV
ASSAY_SUMMARY: Inhibition of VEGFR2 (unknown origin) at 10 uM
REPORTED_PROPERTY: inhibition (%)

Would you please look over these solved cases?
inhibition for `CN1CCN(c2ccc(Nc3ncc4cc(Oc5c(Cl)cccc5Cl)c(=O)n(C)c4n3)cc2)CC1` is 24

inhibition for `Cn1c(=O)c(Oc2ccc(F)cc2F)cc2cnc(NCCc3ccccn3)nc21` is 3

(A) Cn1c(=O)c(Oc2ccc(F)cc2F)cc2cnc(Nc3ccc(N4CCC(O)CC4)cc3)nc21
(B) CN(C)CCNc1ncc2cc(Oc3ccc(F)cc3F)c(=O)n(C)c2n1
I need your help: which of the pair A , B has higher inhibition? Use the label to indicate which entry you chose.
A
(A: 100%, B: 1%)

(a) Cn1c(=O)c(Oc2ccc(F)cc2F)cc2cnc(Nc3ccc(N4CCCCC4)cc3)nc21
(b) CN1CCN(c2ccc(Nc3ncc4cc(Oc5ccc(F)cc5F)c(=O)n(C)c4n3)cc2)CC1
(c) Cn1c(=O)c(Oc2c(Cl)cccc2Cl)cc2cnc(NC3CCOCC3)nc21
(d) CN1CCN(CCCNc2ncc3cc(Oc4ccc(F)cc4F)c(=O)n(C)c3n2)CC1
Sort the molecules on inhibition; start with the lowest figure. Hello, could you send the labels back in the order asked? Thank you.
c, a, d, b
